# measured_target: P2X purinoceptor 7 (Homo sapiens, UniProt Q99572)
# assay_summary: Antagonist activity at human P2X7 receptor in LPS/IFN-gamma-differentiated human THP-1 cells assessed as suppression of BzATP-stimulated IL-1beta release per-incubated for 30 mins before BzATP addition and measured after 30 mins by ELISA
# Format: cell-based
result_type: IC50

{"compound": "N#Cc1cccc(S(=O)(=O)Oc2ccc(-c3cncn3C3CCN(C(=O)c4ccc(Cl)c(C(F)(F)F)c4)CC3)cc2)c1", "measured_target": "P2X purinoceptor 7 (Homo sapiens, UniProt Q99572)", "result": "4.28 nM"}
{"compound": "O=C(NC1CC1)c1cccc(S(=O)(=O)Oc2ccc(-c3cncn3C3CCN(C(=O)c4ccc(Cl)c(C(F)(F)F)c4)CC3)cc2)c1", "measured_target": "P2X purinoceptor 7 (Homo sapiens, UniProt Q99572)", "result": "58 nM"}
{"compound": "CC(C)(O)c1ccc(C(=O)N2CCC(n3cncc3-c3ccc(OS(=O)(=O)c4cccc5cnccc45)cc3)CC2)cc1", "measured_target": "P2X purinoceptor 7 (Homo sapiens, UniProt Q99572)", "result": "4.7 nM"}
{"compound": "O=C(c1ccc(Cl)c(C(F)(F)F)c1)N1CCC(c2nc3cc(OS(=O)(=O)c4cccc5cnccc45)ccc3[nH]2)CC1", "measured_target": "P2X purinoceptor 7 (Homo sapiens, UniProt Q99572)", "result": "210 nM"}
{"compound": "CN(C)c1ccc(C(=O)N2CCC(n3cncc3-c3ccc(OS(=O)(=O)c4cccc(C#N)c4)cc3)CC2)cc1", "measured_target": "P2X purinoceptor 7 (Homo sapiens, UniProt Q99572)", "result": "10 nM"}
{"compound": "O=C(c1ccc([N+](=O)[O-])cc1)N1CCC(n2cncc2-c2ccc(OS(=O)(=O)c3cccc4cnccc34)cc2)CC1", "measured_target": "P2X purinoceptor 7 (Homo sapiens, UniProt Q99572)", "result": "8.29 nM"}
{"compound": "CS(=O)(=O)c1ccc(C(=O)N2CCN(c3cc(=O)[nH]c(=O)n3Cc3ccc(OS(=O)(=O)c4cccc5cnccc45)cc3)CC2)cc1", "measured_target": "P2X purinoceptor 7 (Homo sapiens, UniProt Q99572)", "result": "50 nM"}

---

# measured_target: P2X purinoceptor 7 (Homo sapiens)
# Sequence (Q99572 whole entry): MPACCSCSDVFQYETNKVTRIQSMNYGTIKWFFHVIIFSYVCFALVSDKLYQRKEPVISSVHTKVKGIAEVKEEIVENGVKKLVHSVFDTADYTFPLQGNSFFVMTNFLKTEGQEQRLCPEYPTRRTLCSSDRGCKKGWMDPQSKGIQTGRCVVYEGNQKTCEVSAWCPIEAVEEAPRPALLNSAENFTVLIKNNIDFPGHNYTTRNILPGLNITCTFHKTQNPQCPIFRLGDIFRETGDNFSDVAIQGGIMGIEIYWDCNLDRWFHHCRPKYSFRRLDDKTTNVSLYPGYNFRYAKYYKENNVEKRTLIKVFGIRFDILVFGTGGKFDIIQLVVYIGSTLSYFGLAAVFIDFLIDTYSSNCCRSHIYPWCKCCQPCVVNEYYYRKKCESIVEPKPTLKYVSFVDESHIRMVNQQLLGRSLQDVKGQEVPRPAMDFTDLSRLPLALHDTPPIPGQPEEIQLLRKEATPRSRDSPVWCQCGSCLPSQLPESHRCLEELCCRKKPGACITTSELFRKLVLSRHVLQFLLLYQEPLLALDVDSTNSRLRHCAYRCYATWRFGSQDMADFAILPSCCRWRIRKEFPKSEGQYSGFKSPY
# assay_summary: Antagonist activity at human P2X7 receptor expressed in HEK293 cells assessed as inhibition of BzATP-induced EtBr uptake measured after 2 hrs by fluorescence analysis
# Assay type: cell-based
pIC50: −log10 of the molar value.
Known pIC50 of a selection of molecules

{"compound": "O=C(c1ccc([N+](=O)[O-])cc1)N1CCC(n2cncc2-c2ccc(OS(=O)(=O)c3cccc4cnccc34)cc2)CC1", "measured_target": "P2X purinoceptor 7 (Homo sapiens)", "censoring_sign": "=", "pIC50": 8.83}
{"compound": "CNC(=O)c1cccc(S(=O)(=O)Oc2ccc(-c3cncn3C3CCN(C(=O)c4ccc(S(C)(=O)=O)cc4)CC3)cc2)c1", "measured_target": "P2X purinoceptor 7 (Homo sapiens)", "censoring_sign": "=", "pIC50": 6.69}
{"compound": "O=C(Oc1ccc(-c2cncn2C2CCN(C(=O)c3ccc(Cl)c(C(F)(F)F)c3)CC2)cc1)c1cccc2cnccc12", "measured_target": "P2X purinoceptor 7 (Homo sapiens)", "censoring_sign": "<", "pIC50": 5.00}

---

Known inhibition of a selection of molecules
# measured_target: UniProtKB Q99571
# Sequence (Q99571 whole entry): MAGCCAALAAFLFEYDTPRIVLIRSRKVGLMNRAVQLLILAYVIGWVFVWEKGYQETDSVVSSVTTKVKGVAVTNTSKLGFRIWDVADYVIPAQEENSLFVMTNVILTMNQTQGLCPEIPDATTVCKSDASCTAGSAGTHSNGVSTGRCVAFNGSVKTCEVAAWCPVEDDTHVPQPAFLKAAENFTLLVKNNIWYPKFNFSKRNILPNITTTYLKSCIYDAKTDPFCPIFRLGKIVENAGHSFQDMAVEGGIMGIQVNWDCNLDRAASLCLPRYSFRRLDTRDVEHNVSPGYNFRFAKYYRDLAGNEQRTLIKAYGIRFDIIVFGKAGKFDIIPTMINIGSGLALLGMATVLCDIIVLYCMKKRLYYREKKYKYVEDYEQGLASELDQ
# assay_summary: Antagonist activity at human P2X4 receptor expressed in human 1321N1 cells assessed as inhibition of ATP-induced calcium influx at 1 uM preincubated for 30 mins prior to ATP-stimulation by calcium influx assay
# Format: cell-based
result_type: inhibition

{"molecule": "O=C1NC(=O)N(C2CCN(C(=O)c3ccc(Cl)c(C(F)(F)F)c3)CC2)C1Cc1ccc(OS(=O)(=O)c2cccc3cnccc23)cc1 (stereo not given)", "measured_target": "UniProtKB Q99571", "result": "0%"}
{"molecule": "CS(=O)(=O)c1ccc(C(=O)N2CCC(c3nc4cc(OS(=O)(=O)c5cccc6cnccc56)ccc4[nH]3)CC2)cc1", "measured_target": "UniProtKB Q99571", "result": "15%"}
{"molecule": "CN(C)c1ccc(C(=O)N2CCN(c3cc(=O)[nH]c(=O)n3Cc3ccc(OS(=O)(=O)c4cccc5cnccc45)cc3)CC2)cc1", "measured_target": "UniProtKB Q99571", "result": "6%"}
{"molecule": "CN(C)c1ccc(C(=O)N2CCC(n3cncc3-c3ccc(OS(=O)(=O)c4cccc(C(=O)NC5CC5)c4)cc3)CC2)cc1", "measured_target": "UniProtKB Q99571", "result": "7%"}
{"molecule": "CN(C)c1ccc(C(=O)N2CCC(n3cncc3-c3ccc(OS(=O)(=O)c4cccc5cnccc45)cc3)CC2)cc1", "measured_target": "UniProtKB Q99571", "result": "15%"}

---

# measured_target: P2X purinoceptor 7 (Homo sapiens)
# assay_summary: Antagonist activity at human P2X7 receptor in LPS/IFN-gamma-differentiated human THP-1 cells assessed as suppression of BzATP-stimulated IL-1beta release per-incubated for 30 mins before BzATP addition and measured after 30 mins by ELISA
# Assay type: cell-based
pIC50: −log10 of the molar value.
Known pIC50 of a selection of compounds
result_type: pIC50

{"compound": "CS(=O)(=O)c1ccc(C(=O)N2CCC(n3cncc3-c3ccc(OS(=O)(=O)c4cccc5cnccc45)cc3)CC2)cc1", "readout_number": 9.49}
{"compound": "CS(=O)(=O)c1ccc(C(=O)N2CCC(c3nc4cc(OS(=O)(=O)c5cccc6cnccc56)ccc4[nH]3)CC2)cc1", "readout_number": 7.37}
{"compound": "O=C(c1ccc(Cl)c(C(F)(F)F)c1)N1CCN(c2cc(=O)[nH]c(=O)n2Cc2ccc(OS(=O)(=O)c3cccc4cnccc34)cc2)CC1", "readout_number": 7.74}
{"compound": "CNC(=O)c1cccc(S(=O)(=O)Oc2ccc(-c3cncn3C3CCN(C(=O)c4ccc([N+](=O)[O-])cc4)CC3)cc2)c1", "readout_number": 7.59}
{"compound": "O=C(c1ccc([N+](=O)[O-])cc1)N1CCN(c2cc(=O)[nH]c(=O)n2Cc2ccc(OS(=O)(=O)c3cccc4cnccc34)cc2)CC1", "readout_number": 7.49}
{"compound": "O=C1NC(=O)N(C2CCN(C(=O)c3ccc(Cl)c(C(F)(F)F)c3)CC2)C1Cc1ccc(OS(=O)(=O)c2cccc3cnccc23)cc1 (configuration not stated)", "readout_number": 7.27}
{"compound": "O=C(c1ccc(Cl)c(C(F)(F)F)c1)N1CCC(n2cncc2-c2ccc(OS(=O)(=O)c3cccc4cnccc34)cc2)CC1", "readout_number": 7.66}

---

# measured_target: P2X purinoceptor 2 (Homo sapiens, UniProt Q9UBL9)
# Sequence (Q9UBL9 whole entry): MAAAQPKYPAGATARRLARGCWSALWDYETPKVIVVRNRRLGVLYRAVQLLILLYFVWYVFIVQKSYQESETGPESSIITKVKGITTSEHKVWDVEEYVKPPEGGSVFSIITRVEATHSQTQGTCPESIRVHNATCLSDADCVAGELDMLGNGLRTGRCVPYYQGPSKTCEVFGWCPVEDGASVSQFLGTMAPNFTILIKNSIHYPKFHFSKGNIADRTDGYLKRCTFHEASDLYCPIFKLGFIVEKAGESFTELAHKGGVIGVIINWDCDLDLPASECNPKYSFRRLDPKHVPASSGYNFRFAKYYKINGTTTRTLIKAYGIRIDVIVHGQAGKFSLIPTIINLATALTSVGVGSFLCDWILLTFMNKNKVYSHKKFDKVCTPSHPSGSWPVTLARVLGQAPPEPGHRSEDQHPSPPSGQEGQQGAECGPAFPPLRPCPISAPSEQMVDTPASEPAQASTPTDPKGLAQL
# assay_summary: Antagonist activity at human P2X2 receptor expressed in human 1321N1 cells assessed as inhibition of ATP-induced calcium influx preincubated for 30 mins prior to ATP-stimulation by calcium influx assay
pIC50: −log10 of the molar value.
result_type: pIC50

{"compound": "Nc1c(S(=O)(=O)O)cc(Nc2ccc(S(=O)(=O)O)c(Nc3nc(Cl)nc(Cl)n3)c2)c2c1C(=O)c1ccccc1C2=O", "result_type": "pIC50", "readout_number": 6.16}
